Test system: SF-268 CNS
PROTOCOL_TEXT: NCI-60 one-dose screen, 48 h
CONDITION_SET: 10 µM unless noted
This is part of a sample that, as a whole, favours compounds with a hit. Of some 83,000 tested, about 20% had one in any assay. Active and inactive are the calls of the source. The calls were made as follows: active = growth percent below 10; inactive = the rest.
Outcome codes: t (active), f (inactive)

{"COMPOUND": "CS(=O)(=O)c1ccc(-c2nc3ccccn3c2-c2nc3ccc([N+](=O)[O-])cc3[nH]2)cc1", "LABEL": "f"}
{"COMPOUND": "Clc1ccc(Cc2nnc3sc(-c4cccnc4)nn23)cc1", "LABEL": "f"}
{"COMPOUND": "CCOC(=O)c1c(Nc2ccccc2)nn2c(N)c(C#N)c(-c3ccc(OC)cc3)nc12", "LABEL": "f"}
{"COMPOUND": "O=C(N/N=C/c1ccco1)c1[nH]c2ccc(Br)cc2c1-c1ccccc1", "LABEL": "f"}
{"COMPOUND": "CN1C(=O)N(c2ccccc2)C2N=C(N/N=C/c3ccccc3)SC21 (centres undefined)", "LABEL": "f"}
{"COMPOUND": "COc1cc(/C=C/C(=O)c2cc(OC)c(OC)c(OC)c2)ccc1Oc1nc(NCCO)nc(N2CCOCC2)n1", "LABEL": "t"}
{"COMPOUND": "N#Cc1nc(-c2ccccc2)oc1S(N)(=O)=O", "LABEL": "f"}
{"COMPOUND": "CCOc1ccc([C@H]2C(C(=O)c3ccc(Cl)cc3)C3(N[C@@H]2c2ccccc2)C(=O)Nc2ccc(Br)cc23)cc1 (some centres undefined)", "LABEL": "f"}
{"COMPOUND": "CC(C)(C)OC(=O)N1C(=O)c2c(c3c4ccccc4[nH]c3c3ccc4ccccc4c23)C1=O", "LABEL": "f"}

----------
Tested on: UACC-62 melanoma
PROTOCOL_TEXT: NCI-60 one-dose screen, 48 h (100 = growth as untreated, 0 = no growth, -100 = all killed)
CONDITION_SET: 10 µM unless noted
The panel holds about 83,000 compounds, 20% with a hit somewhere; the sample as a whole holds those more often.
PARAMETER_MEASURED: growth (%)

{"COMPOUND": "Cc1cc(C(NC(=O)CCCCCNc2cccc3c2C(=O)N(C2CCC(=O)NC2=O)C3=O)c2cccnc2)c(O)c2ncccc12 (stereo not given)", "ENDPOINT_RESULT": 18.5}
{"COMPOUND": "O=C1/C(=C/C2=Cc3ccccc3OC2)SC(=S)N1c1ccc(F)cc1", "ENDPOINT_RESULT": 97.4}
{"COMPOUND": "Clc1ccc2c(NCCCn3ccnc3)c3oc4ccccc4c3nc2c1", "ENDPOINT_RESULT": 66.1}
{"COMPOUND": "CCOC(=O)c1c(Nc2ccccc2)nn2c(N)c(C#N)c(-c3ccc(F)cc3)nc12", "ENDPOINT_RESULT": 84.6}
{"COMPOUND": "CN1CCc2c(sc3ncnc(N/N=C/c4ccc(Cl)c(Cl)c4)c23)C1", "ENDPOINT_RESULT": -26.8}
{"COMPOUND": "COC(=O)C(C)NS(=O)(=O)/N=C1\\NC(=O)NC1=C(Cl)Cl (stereo not given)", "ENDPOINT_RESULT": 91.9}
{"COMPOUND": "COc1cc(/C=C/C(=O)c2cc(OC)c(OC)c(OC)c2)ccc1OCc1ccc(F)cc1", "ENDPOINT_RESULT": 43.9}
{"COMPOUND": "OC1CCN(CCCOc2c3ccccc3nc3c2oc2ccc(Cl)cc23)CC1", "ENDPOINT_RESULT": -19.5}
{"COMPOUND": "C[C@@H](Nc1c(C#N)cnc2ccc(-c3cnc(N)nc3)cc12)c1ccccc1", "ENDPOINT_RESULT": -9.74}
{"COMPOUND": "N#Cc1nc(-c2ccccc2)oc1N1CCC(CO)C1 (stereo not given)", "ENDPOINT_RESULT": 89.4}
